src = patent US8288367B2

Quick list: inhibition at 0.1 µM per entry.
Target: recombinant human 17β-HSD1 (Homo sapiens)
Construct: made in house; host or cells: Sf9 insect cells (baculovirus, Bac to Bac Expression System)
Sequence (P14061 whole entry): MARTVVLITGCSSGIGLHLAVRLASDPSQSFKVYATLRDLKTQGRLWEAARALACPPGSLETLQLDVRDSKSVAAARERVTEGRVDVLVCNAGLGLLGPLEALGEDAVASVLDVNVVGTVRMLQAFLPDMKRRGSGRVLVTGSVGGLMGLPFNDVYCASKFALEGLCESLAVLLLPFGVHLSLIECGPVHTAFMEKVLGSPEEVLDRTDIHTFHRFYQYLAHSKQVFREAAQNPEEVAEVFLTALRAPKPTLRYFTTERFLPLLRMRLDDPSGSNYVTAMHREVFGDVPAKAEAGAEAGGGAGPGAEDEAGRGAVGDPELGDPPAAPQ
Experiment: Recombinant 17β-HSD1 assay (HPLC, 3H-estrone conversion)
Assay type: biochemical
Conditions: 100 nM compound; 30 nM estrone, 1 mM NADPH, 30 min RT; read-out: Inhibition of rec. 17β-HSD1
MEASUREMENT LABEL: inhibition at 0.1 µM

Cc1cnc(NC(=O)CC[C@@H]2CC(=O)[C@@]3(C)CC[C@@H]4c5ccc(B(O)O)cc5CC[C@H]4[C@H]23)s1 [Compound 11] :: 62%
C[C@]12CC[C@@H]3c4ccc(B(O)O)cc4CC[C@H]3[C@@H]1[C@H](CCC(=O)NC1CCCCC1)CC2(F)F [Compound 59] :: 69%
COc1ccc(CCN(C)C(=O)CCC[C@H]2CC(=O)[C@@]3(C)CC[C@@H]4c5ccc(B(O)O)cc5CC[C@H]4[C@H]23)cc1OC [Compound 26] :: 21%
C[C@]12CC[C@@H]3c4ccc(B(O)O)cc4CC[C@H]3[C@@H]1[C@@H](CCCC(=O)NCc1ccc3c(c1)OCO3)CC2=O [Compound 19] :: 19%
C[C@]12CC[C@@H]3c4ccc(B(O)O)cc4CC[C@H]3[C@@H]1[C@H](CCC(=O)NCc1ccccc1)CC2(F)F [Compound 63] :: 51%
COc1ccc(CCN(C)C(=O)CC[C@@H]2CC(F)(F)[C@@]3(C)CC[C@@H]4c5ccc(B(O)O)cc5CC[C@H]4[C@H]23)cc1OC [Compound 72] :: 39%
CCN(CC)C(=O)CC[C@@H]1CC(F)(F)[C@@]2(C)CC[C@@H]3c4ccc(B(O)O)cc4CC[C@H]3[C@H]12 [Compound 71] :: 78%
CCN(CC)C(=O)CC[C@@H]1CC(=O)[C@@]2(C)CC[C@@H]3c4ccc(B(O)O)cc4CC[C@H]3[C@H]12 [Compound 39] :: 74%
Cc1cnc(NC(=O)CCC[C@H]2CC(=O)[C@@]3(C)CC[C@@H]4c5ccc(B(O)O)cc5CC[C@H]4[C@H]23)s1 [Compound 16] :: 30%
Cc1cnc(NC(=O)CC[C@@H]2CC(F)(F)[C@@]3(C)CC[C@@H]4c5ccc(B(O)O)cc5CC[C@H]4[C@H]23)s1 [Compound 58] :: 23%
C[C@]12CC[C@@H]3c4ccc(B(O)O)cc4CC[C@H]3[C@@H]1[C@H](CCC(=O)NC1CCCCC1)CC2=O [Compound 32] :: 77%
C[C@]12CC[C@@H]3c4ccc(Nc5cnc6ccccc6c5)cc4CC[C@H]3[C@@H]1[C@@H](CCCC(=O)N1CCOCC1)CC2=O [Compound 83] :: 19%
COc1ccc(CCN(C)C(=O)CCC[C@H]2CC(F)(F)[C@@]3(C)CC[C@@H]4c5ccc(B(O)O)cc5CC[C@H]4[C@H]23)cc1OC [Compound 51] :: 37%
C[C@]12CC[C@@H]3c4ccc(B(O)O)cc4CC[C@H]3[C@@H]1[C@@H](CCCC(=O)NC1CCCCC1)CC2(F)F [Compound 48] :: 25%
C[C@]12CC[C@@H]3c4ccc(Nc5ccc6c(c5)S(=O)(=O)C=C6)cc4CC[C@H]3[C@@H]1[C@@H](CCCC(=O)N1CCOCC1)CC2=O [Compound 91] :: 36%
C[C@]12CC[C@@H]3c4ccc(B(O)O)cc4CC[C@H]3[C@@H]1[C@H](CCC(=O)NCc1ccc(F)cc1F)CC2(F)F [Compound 65] :: 32%
CN(Cc1ccccc1)C(=O)CCC[C@H]1CC(=O)[C@@]2(C)CC[C@@H]3c4ccc(B(O)O)cc4CC[C@H]3[C@H]12 [Compound 22] :: 37%
C[C@]12CC[C@@H]3c4ccc(B(O)O)cc4CC[C@H]3[C@@H]1[C@H](CCC(=O)NCc1ccc3c(c1)OCO3)CC2(F)F [Compound 60] :: 46%
C[C@]12CC[C@@H]3c4ccc(B(O)O)cc4CC[C@H]3[C@@H]1[C@@H](CCCC(=O)NC1CCCCC1)CC2=O [Compound 17] :: 24%
CN(Cc1ccccc1)C(=O)CC[C@@H]1CC(=O)[C@@]2(C)CC[C@@H]3c4ccc(B(O)O)cc4CC[C@H]3[C@H]12 [Compound 37] :: 22%
C[C@]12CC[C@@H]3c4ccc(B(O)O)cc4CC[C@H]3[C@@H]1[C@@H](CCCC(=O)NCc1cccnc1)CC2(F)F [Compound 53] :: 19%
Cc1cnc(NC(=O)CC[C@@H]2CC(=O)[C@@]3(C)CC[C@@H]4c5ccc(C(N)=O)cc5CC[C@H]4[C@H]23)s1 [Compound 3] :: 20%
Cc1cnc(NC(=O)CC[C@@H]2CC(=O)[C@@]3(C)CC[C@@H]4c5ccc(B(O)O)cc5CC[C@H]4[C@H]23)s1 [Compound 31] :: 82%
C[C@]12CC[C@@H]3c4ccc(B(O)O)cc4CC[C@H]3[C@@H]1[C@@H](CCCC(=O)NCc1ccc(O)c(O)c1)CC2=O [Compound 12] :: 32%
Cc1cccc2c(CCNC(=O)CC[C@@H]3CC(F)(F)[C@@]4(C)CC[C@@H]5c6ccc(B(O)O)cc6CC[C@H]5[C@H]34)c[nH]c12 [Compound 67] :: 47%
